biological target: PRC2 containing wt EZH2 (Homo sapiens (Human), UniProt Q15910); assay: EZH2 biochemical assay (IC50), 3H-SAM incorporation into biotinylated H3 peptide; details: 30 pM PRC2 containing wt EZH2; 3-5 h pre-incubation; read-out: EZH2 (IC50)
Sequence (Q15910 whole entry): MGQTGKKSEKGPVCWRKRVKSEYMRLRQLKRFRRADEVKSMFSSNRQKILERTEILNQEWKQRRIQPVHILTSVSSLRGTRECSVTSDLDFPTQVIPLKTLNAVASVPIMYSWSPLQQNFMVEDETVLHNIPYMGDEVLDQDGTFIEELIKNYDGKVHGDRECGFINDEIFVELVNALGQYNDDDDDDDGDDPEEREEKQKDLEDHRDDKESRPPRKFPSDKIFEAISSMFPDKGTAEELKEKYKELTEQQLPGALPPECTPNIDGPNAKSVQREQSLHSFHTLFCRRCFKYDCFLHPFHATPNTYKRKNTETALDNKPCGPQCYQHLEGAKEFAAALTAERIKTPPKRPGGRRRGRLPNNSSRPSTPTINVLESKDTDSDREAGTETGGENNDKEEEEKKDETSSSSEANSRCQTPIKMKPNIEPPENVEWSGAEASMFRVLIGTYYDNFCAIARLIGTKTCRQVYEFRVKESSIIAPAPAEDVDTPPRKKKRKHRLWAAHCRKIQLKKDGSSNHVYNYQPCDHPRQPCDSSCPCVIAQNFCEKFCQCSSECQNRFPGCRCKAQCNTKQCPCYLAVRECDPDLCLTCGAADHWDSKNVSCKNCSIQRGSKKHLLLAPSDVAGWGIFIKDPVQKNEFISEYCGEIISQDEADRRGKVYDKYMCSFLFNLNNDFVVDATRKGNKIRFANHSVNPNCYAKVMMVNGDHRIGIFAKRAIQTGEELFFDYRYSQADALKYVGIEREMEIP
Sequence (O75530 whole entry partner): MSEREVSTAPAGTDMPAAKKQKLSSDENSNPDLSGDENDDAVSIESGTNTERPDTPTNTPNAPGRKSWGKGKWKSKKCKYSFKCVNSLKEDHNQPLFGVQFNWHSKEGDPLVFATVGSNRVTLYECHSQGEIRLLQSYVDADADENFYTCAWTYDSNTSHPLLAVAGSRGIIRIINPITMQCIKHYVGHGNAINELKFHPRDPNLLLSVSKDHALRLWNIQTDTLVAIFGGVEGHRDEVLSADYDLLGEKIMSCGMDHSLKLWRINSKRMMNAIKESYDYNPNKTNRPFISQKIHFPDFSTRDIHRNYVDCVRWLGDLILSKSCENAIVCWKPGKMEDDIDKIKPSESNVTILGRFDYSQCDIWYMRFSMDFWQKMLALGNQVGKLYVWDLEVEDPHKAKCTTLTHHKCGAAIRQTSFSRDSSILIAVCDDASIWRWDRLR
Sequence (Q15022 whole entry partner): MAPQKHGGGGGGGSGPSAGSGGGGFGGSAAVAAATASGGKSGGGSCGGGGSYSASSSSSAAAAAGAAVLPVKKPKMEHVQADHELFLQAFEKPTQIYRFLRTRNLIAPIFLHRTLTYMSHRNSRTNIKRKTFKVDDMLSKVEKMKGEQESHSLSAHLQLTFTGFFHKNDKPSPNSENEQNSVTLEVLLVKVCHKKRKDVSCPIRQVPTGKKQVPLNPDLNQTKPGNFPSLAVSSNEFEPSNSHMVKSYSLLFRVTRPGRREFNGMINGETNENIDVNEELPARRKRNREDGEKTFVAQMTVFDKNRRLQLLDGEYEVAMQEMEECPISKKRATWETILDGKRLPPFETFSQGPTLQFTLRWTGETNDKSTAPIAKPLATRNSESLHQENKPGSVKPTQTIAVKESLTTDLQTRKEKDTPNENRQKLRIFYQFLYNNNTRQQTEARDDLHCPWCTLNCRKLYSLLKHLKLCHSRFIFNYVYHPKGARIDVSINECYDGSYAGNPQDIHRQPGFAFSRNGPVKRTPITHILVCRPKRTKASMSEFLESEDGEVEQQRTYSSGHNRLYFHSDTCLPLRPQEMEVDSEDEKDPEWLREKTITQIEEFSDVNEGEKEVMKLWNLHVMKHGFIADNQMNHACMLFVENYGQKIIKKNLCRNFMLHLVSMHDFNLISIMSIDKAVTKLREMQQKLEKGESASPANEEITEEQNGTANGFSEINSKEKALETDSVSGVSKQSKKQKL
Sequence (Q09028 whole entry partner): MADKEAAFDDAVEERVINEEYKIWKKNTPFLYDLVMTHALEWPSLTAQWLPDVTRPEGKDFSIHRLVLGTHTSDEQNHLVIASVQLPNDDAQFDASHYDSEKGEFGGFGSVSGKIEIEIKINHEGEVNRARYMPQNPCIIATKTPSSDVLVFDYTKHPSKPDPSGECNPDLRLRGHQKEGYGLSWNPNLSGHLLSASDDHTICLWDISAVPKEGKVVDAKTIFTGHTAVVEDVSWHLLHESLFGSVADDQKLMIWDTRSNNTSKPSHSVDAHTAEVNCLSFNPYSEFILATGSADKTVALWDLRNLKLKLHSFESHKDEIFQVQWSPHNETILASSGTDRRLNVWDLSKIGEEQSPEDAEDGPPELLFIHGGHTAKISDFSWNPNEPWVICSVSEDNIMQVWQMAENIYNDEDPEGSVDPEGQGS
Sequence (Q6ZN18 whole entry partner): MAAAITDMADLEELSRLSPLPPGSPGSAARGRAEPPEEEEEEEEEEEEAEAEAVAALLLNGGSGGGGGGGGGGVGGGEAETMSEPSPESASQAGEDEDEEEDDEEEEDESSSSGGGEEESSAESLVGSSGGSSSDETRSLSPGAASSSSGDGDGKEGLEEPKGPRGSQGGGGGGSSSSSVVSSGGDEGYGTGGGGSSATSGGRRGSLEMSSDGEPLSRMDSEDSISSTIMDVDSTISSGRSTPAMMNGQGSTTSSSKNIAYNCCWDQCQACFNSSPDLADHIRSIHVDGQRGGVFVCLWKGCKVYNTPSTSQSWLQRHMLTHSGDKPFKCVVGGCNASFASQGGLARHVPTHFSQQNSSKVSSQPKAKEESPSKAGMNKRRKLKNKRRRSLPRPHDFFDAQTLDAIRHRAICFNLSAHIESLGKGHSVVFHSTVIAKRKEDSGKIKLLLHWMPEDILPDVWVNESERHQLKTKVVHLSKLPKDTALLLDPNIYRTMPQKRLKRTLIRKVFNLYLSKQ
Measured IC50, listed per entry for reference.
measurement-label: IC50

[
  {
    "compound": "CSc1cc(C)[nH]c(=O)c1CNC(=O)c1c(C)n([C@H](C)C2CCC(NC3(C(F)(F)F)COC3)CC2)c2ncncc12 (single isomer, unassigned) [164 (isomer 1)]",
    "measurement-label": "IC50",
    "result": "< 0.5 nM"
  },
  {
    "compound": "CSc1cc(C)[nH]c(=O)c1CNC(=O)c1c(C)n([C@H](C)[C@H]2OC[C@@H](N3CCC34COC4)CO2)c2ccccc12 (single isomer, unassigned; isomer 1) [150 (isomer 1)]",
    "measurement-label": "IC50",
    "result": "0.5 to 5 nM"
  },
  {
    "compound": "CSc1cc(C)[nH]c(=O)c1CNC(=O)c1c(C)n([C@H](C)C2CCC(N3CC(OCC(F)F)C3)CC2)c2ncccc12 (some centres unmarked)",
    "measurement-label": "IC50",
    "result": "< 0.5 nM"
  },
  {
    "compound": "CSc1cc(C)[nH]c(=O)c1CNC(=O)c1c(C)n([C@H](C)C2CCC(N3CC(OC(F)(F)F)C3)CC2)c2ncncc12 (single isomer, unassigned) [123 (isomer 2)]",
    "measurement-label": "IC50",
    "result": "< 0.5 nM"
  },
  {
    "compound": "COc1cnc2c(c1)c(C(=O)NCc1c(SC)cc(C)[nH]c1=O)c(C)n2[C@H](C)C1CCC(N2CC(OC(F)F)C2)CC1 (single isomer, unassigned) [125 (isomer 2)]",
    "measurement-label": "IC50",
    "result": "< 0.5 nM"
  }
]

----------
Measured IC50, listed per entry for reference.
target: PRC2 containing wt EZH2 (Homo sapiens (Human)); assay: EZH2 biochemical assay (IC50), 3H-SAM incorporation into biotinylated H3 peptide; conditions: 30 pM PRC2 containing wt EZH2; 3-5 h pre-incubation; read-out: EZH2 (IC50)

[
  {
    "compound": "CSc1cc(C)[nH]c(=O)c1CNC(=O)c1c(C)n([C@H](C)C2CCC(NC3(C(F)(F)F)COC3)CC2)c2ccccc12 (single isomer, unassigned)",
    "IC50": "< 0.5 nM"
  },
  {
    "compound": "CSc1cc(C)[nH]c(=O)c1CNC(=O)c1c(C)n([C@H](C)C2OCC(NC(C)(C)C)CO2)c2ccccc12 (single isomer, unassigned) [5 (isomer 2)]",
    "IC50": "< 0.5 nM"
  },
  {
    "compound": "COc1cnc2c(c1)c(C(=O)NCc1c(SC)cc(C)[nH]c1=O)c(C)n2[C@H](C)C1CCC(N2CC(OC(F)F)C2)CC1 (single isomer, unassigned) [125 (isomer 1)]",
    "IC50": "< 0.5 nM"
  },
  {
    "compound": "CSc1cc(C)[nH]c(=O)c1CNC(=O)c1c(C)n([C@H](C)C2CCC(N3CC(S(C)(=O)=O)C3)CC2)c2ccccc12 (single isomer, unassigned) [162 (isomer 2)]",
    "IC50": "0.5 to 5 nM"
  },
  {
    "compound": "CSc1cc(C)[nH]c(=O)c1CNC(=O)c1c(C)n([C@H](C)C2CCC(N3CC(OC(F)F)C3)CC2)c2c(F)cccc12 (single isomer, unassigned) [121 (isomer 1)]",
    "IC50": "< 0.5 nM"
  }
]
